# target of assay: T1, Bfl-1, Q16548
# T1 chain: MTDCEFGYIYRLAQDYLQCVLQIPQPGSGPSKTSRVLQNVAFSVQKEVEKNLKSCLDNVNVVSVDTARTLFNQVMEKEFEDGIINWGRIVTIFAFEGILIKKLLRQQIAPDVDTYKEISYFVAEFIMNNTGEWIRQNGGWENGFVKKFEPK
# procedure text: peptide SPOT array, c-Myc-tagged receptor at 1 uM or 100 nM, anti-c-Myc-Cy3
quantity measured: SPOT signal as a fraction of Bim BH3's signal on the same receptor and array

Consider the worked cases shown below.
# binder, observed value
rows = [
    ("SQEPLEKAQLDALVGDQLIQSHHYAA [MCF2L2]", 0.04),
    ("RMIVDCVSSHDKKTGDGAKTFIIFLC [BBS10]", 0.09),
]

I: MQTLSELAKSFQDMADRCLLVLHLEV [EXOC4]
II: VLAPVQLGKWLVLFCDEINLPDMDKY [DYNC1H1]
Lab note: check whether I or II shows the higher recorded SPOT signal as a fraction of Bim BH3's signal on the same receptor and array. Reply with the label of the item you choose.
II
(II: 0.08, I: 0.04)
